molecular target: neuraminidase (NA) of A/FujianXinluo/SWL2457/2014 (amantadine-resistant H1N1); settings: read-out: IC50, NA inhibition test, A/FujianXinluo/SWL2457/2014
pIC50: −log10 of the molar value.
measurement.name: pIC50

* C=C[C@@H]1CNC(=S)O1 [Epigoitrin] | < 4.00
* C=C(C(=O)O)[C@H]1CC[C@H](C)[C@@H]2CC(=O)C(C)=C2C1 (stereo in doubt) | < 4.00
* O=c1cc(-c2ccc(O)c(O)c2)oc2c([C@@H]3O[C@H](CO)[C@@H](O)[C@H](O)[C@H]3O)c(O)cc(O)c12 | < 4.00
* O=C(/C=C/c1ccc(O)c(O)c1)O[C@@H]1C[C@](O)(C(=O)O)C[C@@H](O)[C@H]1O | < 4.00
